# ASSAY TARGET: Endothelin-1 receptor (Homo sapiens, UniProt P25101)
# Sequence (P25101 whole entry): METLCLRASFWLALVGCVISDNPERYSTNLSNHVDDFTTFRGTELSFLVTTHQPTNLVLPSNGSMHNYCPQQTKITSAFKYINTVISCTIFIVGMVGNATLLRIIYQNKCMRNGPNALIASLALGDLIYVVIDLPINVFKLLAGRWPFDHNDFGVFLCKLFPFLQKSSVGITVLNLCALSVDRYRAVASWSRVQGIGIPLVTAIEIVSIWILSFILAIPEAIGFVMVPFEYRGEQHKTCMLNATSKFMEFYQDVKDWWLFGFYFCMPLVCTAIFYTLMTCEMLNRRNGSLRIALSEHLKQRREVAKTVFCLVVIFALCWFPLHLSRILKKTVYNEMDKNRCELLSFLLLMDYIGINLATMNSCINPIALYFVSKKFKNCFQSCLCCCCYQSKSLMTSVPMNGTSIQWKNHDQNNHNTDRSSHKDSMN
# ASSAY EXPLANATION: Inhibitory concentration required against [125I]ET1 binding to membranes of CHO cells expressing human ETA receptor
pIC50: −log10 of the molar value.
READOUT: pIC50

I. CCS(=O)(=O)NCCCOc1nc(-c2ncccn2)nc(NS(=O)(=O)c2ccc(C(C)(C)C)cc2)c1Oc1ccccc1OC
II. CCS(=O)(=O)NCCOc1nc(C2CC2)nc(NS(=O)(=O)c2ccc(C)cn2)c1Oc1ccccc1OC
III. COc1ccccc1Oc1c(NS(=O)(=O)c2ccc(C)cn2)nc(-c2ccncc2)nc1OCCNS(=O)(=O)c1cccs1
In: Ascending sort, pIC50. Return the labels ranked in the requested order, please.
Out: III, I, II

a. CCCS(=O)(=O)NCCOc1nc(C2CC2)nc(NS(=O)(=O)c2ccc(C)cn2)c1Oc1ccccc1OC
b. CCS(=O)(=O)NCCOc1nc(-c2ncccn2)nc(NS(=O)(=O)c2ccc(C(C)(C)C)cc2)c1Oc1ccccc1OC
c. CCS(=O)(=O)NCCOc1nc(N2CCOCC2)nc(NS(=O)(=O)c2ccc(C(C)C)cn2)c1Oc1ccccc1OC
d. CCCS(=O)(=O)NCCOc1nc(N2CCOCC2)nc(NS(=O)(=O)c2ccc(C)cn2)c1Oc1ccccc1OC
In: Sort these molecules on pIC50 so the largest reading comes first. Give the labels in the order requested.
Out: c, d, b, a
(c: 7.72, d: 7.29, b: 6.31, a: 5.88)

###

Readings of Kb for the listed compounds
# ASSAY TARGET: UniProt:P21451
# Sequence (P21451 whole entry): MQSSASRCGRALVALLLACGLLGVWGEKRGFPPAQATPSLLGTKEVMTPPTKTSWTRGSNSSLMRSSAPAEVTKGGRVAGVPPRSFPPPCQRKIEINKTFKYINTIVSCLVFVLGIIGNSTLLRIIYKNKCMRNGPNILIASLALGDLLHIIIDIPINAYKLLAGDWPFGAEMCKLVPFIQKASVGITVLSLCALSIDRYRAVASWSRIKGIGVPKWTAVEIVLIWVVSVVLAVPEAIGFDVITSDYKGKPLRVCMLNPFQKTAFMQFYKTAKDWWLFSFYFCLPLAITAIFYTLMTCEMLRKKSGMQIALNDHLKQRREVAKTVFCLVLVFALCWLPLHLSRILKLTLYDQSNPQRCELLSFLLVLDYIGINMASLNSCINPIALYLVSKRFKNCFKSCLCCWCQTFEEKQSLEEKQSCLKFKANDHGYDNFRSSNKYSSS
# ASSAY EXPLANATION: In vitro inhibitory potency for preventing sarafotoxin S6c induced constriction of rat tracheal rings (ETB receptor)
# Assay type: functional, tissue-based, Trachea
# RUN PARAMETERS: read-out: pA2 (converted)
Field: numeric (µM). Do not append units.

[
  {
    "SMILES": "CCCS(=O)(=O)NCCOc1nc(-c2cc(OC)c(OC)c(OC)c2)nc(NS(=O)(=O)c2ccc(C(C)C)cn2)c1Oc1ccccc1OC",
    "UNIT TEXT": "µM",
    "Kb": 0.0331
  },
  {
    "SMILES": "COc1ccccc1Oc1c(NS(=O)(=O)c2ccc(C(C)C)cn2)nc(N2CCOCC2)nc1OCCCNS(=O)(=O)c1ccc(C)cc1",
    "UNIT TEXT": "µM",
    "Kb": 0.107
  }
]

In: Look up UniProt:P21451 data: Kb of `CCCS(=O)(=O)NCCCOc1nc(C2CC2)nc(NS(=O)(=O)c2ccc(C(C)C)cn2)c1Oc1ccccc1OC` , then report it.
Out: 0.0692

In: Tell me Kb of `CCS(=O)(=O)NCCOc1nc(C2CC2)nc(NS(=O)(=O)c2ccc(C(C)C)cn2)c1Oc1ccccc1OC` when tested on UniProt:P21451.
Out: 0.269

In: Give Kb; test system UniProt:P21451; compound `CCCS(=O)(=O)NCCOc1nc(N2CCOCC2)nc(NS(=O)(=O)c2ccc(C(C)C)cn2)c1Oc1ccccc1OC`
Out: 0.24

In: Name the value of Kb reported for `CCS(=O)(=O)NCCCOc1nc(C2CC2)nc(NS(=O)(=O)c2ccc(C(C)C)cn2)c1Oc1ccccc1OC` when tested on UniProt:P21451.
Out: 0.269

In: State, for UniProt:P21451, measured Kb of the compound listed here: `COc1ccccc1Oc1c(NS(=O)(=O)c2ccc(C(C)C)cn2)nc(-c2cc(OC)c(OC)c(OC)c2)nc1OCCNS(=O)(=O)c1cccs1`
Out: 0.0389

###

# ASSAY TARGET: Endothelin receptor type B (Homo sapiens)
# Sequence (P24530 whole entry): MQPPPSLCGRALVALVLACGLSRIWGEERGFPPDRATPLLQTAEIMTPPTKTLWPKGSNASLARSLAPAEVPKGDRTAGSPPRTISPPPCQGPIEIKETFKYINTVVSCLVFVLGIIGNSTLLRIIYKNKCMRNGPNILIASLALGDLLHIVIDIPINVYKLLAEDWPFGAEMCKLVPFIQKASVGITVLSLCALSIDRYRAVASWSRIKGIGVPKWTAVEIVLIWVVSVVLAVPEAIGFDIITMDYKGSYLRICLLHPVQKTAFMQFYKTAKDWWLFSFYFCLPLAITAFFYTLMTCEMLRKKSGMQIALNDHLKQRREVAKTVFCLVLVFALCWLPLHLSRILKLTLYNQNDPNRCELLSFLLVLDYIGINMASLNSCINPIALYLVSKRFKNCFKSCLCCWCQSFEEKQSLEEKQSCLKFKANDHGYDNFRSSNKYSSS
# ASSAY EXPLANATION: Inhibitory concentration required against [125I]ET1 binding to membranes of CHO cells expressing human ETB receptor
pIC50: −log10 of the molar value.
READOUT: pIC50

1. COc1ccccc1Oc1c(NS(=O)(=O)c2ccc(C(C)(C)C)cc2)nc(C2CC2)nc1OCCCNS(=O)(=O)c1cccs1
2. COc1ccccc1Oc1c(NS(=O)(=O)c2ccc(C(C)(C)C)cc2)nc(-c2ncccn2)nc1OCCNS(=O)(=O)c1cccs1
In: Which numeric pIC50 is bigger, that of 1 or that of 2 ? Indicate your choice by writing its label.
Out: 1

1. COc1ccccc1Oc1c(NS(=O)(=O)c2ccc(C(C)C)cn2)nc(-c2cc(OC)c(OC)c(OC)c2)nc1OCCNS(=O)(=O)c1ccc(C)cc1
2. CCCS(=O)(=O)NCCOc1nc(C2CC2)nc(NS(=O)(=O)c2ccc(C)cn2)c1Oc1ccccc1OC
In: // returns 1 or 2 , whichever has the lower pIC50 Bench note: the answer is the label of the chosen record.
Out: 2
(2: 5.33, 1: 8.40)

P. COc1ccccc1Oc1c(NS(=O)(=O)c2ccc(C)cn2)nc(-c2ccncc2)nc1OCCNS(=O)(=O)c1ccc(C)cc1
Q. CCS(=O)(=O)NCCCOc1nc(-c2ncccn2)nc(NS(=O)(=O)c2ccc(C(C)(C)C)cc2)c1Oc1ccccc1OC
R. COc1ccccc1Oc1c(NS(=O)(=O)c2ccc(C)cn2)nc(C2CC2)nc1OCCNS(=O)(=O)c1cccs1
S. COc1ccccc1Oc1c(NS(=O)(=O)c2ccc(C)cn2)nc(-c2cc(OC)c(OC)c(OC)c2)nc1OCCNS(=O)(=O)c1cccs1
T. COc1ccccc1Oc1c(NS(=O)(=O)c2ccc(C)cn2)nc(-c2ccncc2)nc1OCCNS(=O)(=O)c1cccs1
In: Task field, ranking: reported pIC50, descending order. Please write the labels in the order that was asked for.
Out: Q, S, P, T, R
(Q: 7.00, S: 6.45, P: 5.81, T: 5.43, R: 5.08)

###

# ASSAY TARGET: Endothelin-1 receptor (Rattus norvegicus)
# Sequence (P26684 whole entry): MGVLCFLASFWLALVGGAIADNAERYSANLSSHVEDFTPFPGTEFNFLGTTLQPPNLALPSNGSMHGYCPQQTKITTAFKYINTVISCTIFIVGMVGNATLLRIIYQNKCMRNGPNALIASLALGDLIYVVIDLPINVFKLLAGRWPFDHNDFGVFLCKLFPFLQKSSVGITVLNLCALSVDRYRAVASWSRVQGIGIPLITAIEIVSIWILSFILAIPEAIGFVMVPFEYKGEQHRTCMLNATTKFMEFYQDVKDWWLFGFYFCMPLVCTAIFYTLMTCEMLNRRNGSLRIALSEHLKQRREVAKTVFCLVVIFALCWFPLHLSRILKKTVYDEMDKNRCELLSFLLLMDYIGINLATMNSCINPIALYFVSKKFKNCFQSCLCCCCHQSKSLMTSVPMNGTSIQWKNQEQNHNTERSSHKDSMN
# ASSAY EXPLANATION: In vitro inhibitory potency for preventing ET-1 induced constriction of rat aortic rings (ETA receptor)
# Assay type: functional
# RUN PARAMETERS: read-out: pA2 (converted)
READOUT: Kb (nM)
Write down the numeric answer in nM and omit the unit.

[
  {
    "SMILES": "CCCS(=O)(=O)NCCCOc1nc(C2CC2)nc(NS(=O)(=O)c2ccc(C(C)C)cn2)c1Oc1ccccc1OC",
    "READOUT": "Kb",
    "UNIT TEXT": "nM",
    "RESULT": 245
  },
  {
    "SMILES": "COc1ccccc1Oc1c(NS(=O)(=O)c2ccc(C(C)C)cn2)nc(N2CCOCC2)nc1OCCCNS(=O)(=O)c1ccc(C)cc1",
    "READOUT": "Kb",
    "UNIT TEXT": "nM",
    "RESULT": 4790
  },
  {
    "SMILES": "CCS(=O)(=O)NCCOc1nc(C2CC2)nc(NS(=O)(=O)c2ccc(C(C)C)cn2)c1Oc1ccccc1OC",
    "READOUT": "Kb",
    "UNIT TEXT": "nM",
    "RESULT": 347
  },
  {
    "SMILES": "CCCS(=O)(=O)NCCOc1nc(-c2cc(OC)c(OC)c(OC)c2)nc(NS(=O)(=O)c2ccc(C(C)C)cn2)c1Oc1ccccc1OC",
    "READOUT": "Kb",
    "UNIT TEXT": "nM",
    "RESULT": 3160
  },
  {
    "SMILES": "COc1ccccc1Oc1c(NS(=O)(=O)c2ccc(C(C)C)cn2)nc(C2CC2)nc1OCCCNS(=O)(=O)c1ccc(C)cc1",
    "READOUT": "Kb",
    "UNIT TEXT": "nM",
    "RESULT": 309
  }
]

In: Please list Kb recorded for the compound `CCCS(=O)(=O)NCCOc1nc(C2CC2)nc(NS(=O)(=O)c2ccc(C(C)C)cn2)c1Oc1ccccc1OC`
Out: 288

In: Look up and report measured Kb for this entry: `CCS(=O)(=O)NCCCOc1nc(C2CC2)nc(NS(=O)(=O)c2ccc(C(C)C)cn2)c1Oc1ccccc1OC`
Out: 105

In: Please give measured Kb of the following entry: `COc1ccccc1Oc1c(NS(=O)(=O)c2ccc(C(C)C)cn2)nc(C2CC2)nc1OCCCNS(=O)(=O)c1cccs1`
Out: 120

In: Quick one: give measured Kb for `CCCS(=O)(=O)NCCOc1nc(N2CCOCC2)nc(NS(=O)(=O)c2ccc(C(C)C)cn2)c1Oc1ccccc1OC`
Out: 832
